assay: yeast display, Sf9 membrane polyspecificity reagent, FACS + sequencing; frameworks hold sequencing errors
observation_type: polyreactivity (PSR sort gate)

biosequence=QVQLVESGGGLVQAGGSLRLSCAASGRTIYYYAMGLYRQAPGKERELVAAISSSGSTTYYADSVKGRFTISRDNAKNTVYLQMNSLKPEDTAVYYCAASYVYRVDDDYWGLGTQVTVSS measured="low polyreactivity"
biosequence=QVQLEESGGGLVQSGGSLRLSCAASGSIFYGYTMGWYRQAPGKEMEFVAAITGSGGSTYFADSVKGRFTISRDNAKKTVYLQMNSLKPEDTSVYYCAARRYVNRRYDYWGQGTQVTVSS measured="high polyreactivity"
biosequence=QDQLVESGGGLVQAGGSLRLSCAASAIIFYYYAMGSYRQAPGKERELVAAISSSGGRTRYADSVKGRVTISRDNAKNTVYLLMNRLKPEDTAVYYCAAEFIRGYGESYDYWGQGTQVTVSS measured="low polyreactivity"
biosequence=QDQLVESGGGLVQAGGSLRLSCAASGLTYRLNAMGWYRQAPGKEREFVAAISAIGDRTYYADSVKGRFTISRDNAKNTVYLQMNSLKPEDTSVYYCNVTPRSAQVRIGNYWGQGTQVTVSS measured="high polyreactivity"
biosequence=QVQLVESGGGLVQAGGSLRLSCAASGIIFDSYAMGWYRQAPGKERELVAAITSDSGRTYYADSVKGRFTISRDNAKKTVYLQMNSLKPEDTAVYYCAKRWDGPYDYWGQGTQVTVSS measured="low polyreactivity"
biosequence=QVQLVESGGGLVQAGGSLRLSCAASGSMFIWNAMGWYRQAPGKARELVAAISFTGTSTYYADSVKGRCTSSRDNAKNTVYLQMNSLKPEDTAVYYCNTDYRGSQYDYWVQGTQVTVSS measured="low polyreactivity"
biosequence=QVQLVESGGGLVQAGGSLRLSCAASGIIYKSYAMGWYRQAPGKERELVAVIRWSGGSTYYSDSVKGRFTISRDNAKNTVYLQMNSLKPEDTAVYYCAATPRKSYSIRRYDYWGQGTQVTVSS measured="high polyreactivity"
biosequence=QVQLVESGGGLVQAGGSLRLSCAASGSTFTWYAMGWYRQAPGKERELVADISYGGGSTYYADSVKGRFTISRDNAKNTVYLPMNSLKPEDTAVYYCAAESIPYYRYDYWGQGTQVTVSS measured="low polyreactivity"
biosequence=QVQLVESGGGLVQAGGSLRLSCAASGRIFPKYAMGWYRQAPGKERELVAAIRWSGGNTYYADSVKGRFTISRDNAKNTVYLQMNSLKPEDTAVYYCAATPYVSKYYYFGHDYWGQGTQVTVSS measured="high polyreactivity"
biosequence=QVQLVESGGGLVQAGGSLRLSCSASGSIFASNTMGWYRQAPGKERELVAGITKIGSSTYYADSVKGRFTISRDNAKNTFYLQMKSLKPEDTAVSYCKAYGPNIYSSRYDYWVQGTQVTVSS measured="low polyreactivity"
biosequence=QVQLVESGGGLVQAGGSLRLSCAASGSIFYYYAIGWYRKAPGKEREFVATIRRSGASTYYADSVKGRFTISRDNAKNTVYLQMNSLKPEDTAVYYCNAASARRPIYEAARWSKYDYWGQGTQVTVSS measured="low polyreactivity"
biosequence=QVQLVESGGGLVQAGGSLRLSCAASGRIFYYNAMGWYRQAPGKERELVAAISYTSGRTYYADSVKGRFTISRDNAKNTVYLQMNSLKPEDTAVYYCAADYYLRKGMDYWGQVTQVTVSS measured="low polyreactivity"
biosequence=QVQLVESGGGLVQAGGSLRLSCAASRLTFYGYGMGWYRQAPGKERELVASITSGGNTYYADSVKGRFTISRDNAKNTVYLRMNSLKPEDTAVYYCAVTAIALYYSSGYYWGQGTQVTVSS measured="low polyreactivity"
biosequence=QVQLVESGGGLVQAGGSLRLSCAASGSIFFPYAMGWYRQAPGKERELVAAISYSGTSTYYADSVKGRFTISRDNAKNTVYLQMNSLKPEDTAVYYCAAYSRYYASYDYWGQGTQVTVSS measured="high polyreactivity"
biosequence=QDQHGESGGGLVQAGGSLRLSCAASGYTFLRNDMGWYRQPHGKVRELVAAISYSGGGTYYADSVKGRFTISRDNAKITVYLQMNSLKPEDTAVYYCNVAQRYYGNFFSSRYEYWGQGTQVTVSS measured="low polyreactivity"
biosequence=QVQLVESGGGLVQAGGSLRLSCAASGRIISVNAMGWYRQAPGKERELVAAITTRGGTPYYADSVKGRFTISRDNAKNTVSLQMNSLKPEDTAVYYCAAESSWSVYWEWAHDYWGQGTQVTVSS measured="low polyreactivity"
biosequence=QVQLVESGGGLVQAGGSLRLSCAASGITFARYAMGWYRQAPGKERELVAAISRNAGRTYYADSVKGRFTISRDNAKNTVYLQMNSLKPEDTAVYYCAAVTKSSVPGSRYDYWGQGTQVTVSS measured="high polyreactivity"
biosequence=QVQLVESGGGLVQAGGSLRLSCAASGFIFRGNAMGWYRQATGKERELVAGIRSLGGTTSYADSVKVRFTISRDNAKNTVYLQMNSLKPDDSGVYYCAAGYGADFDYWGQGTQVTVSS measured="low polyreactivity"
biosequence=QVQLVESGGGLVQAGGSLRLSCAASGRIFFDYAMGWYRQAPGKERELVADIDWSGGITYYADSVKGRFTISRDNAKNTVYLQMNSLIPEDTAVYYCAADFDELYPTTAYGEFEYWGQGTQVTVSS measured="high polyreactivity"
biosequence=QVQLVESGGGLVQAGGSLRLSCAASGFIFKYYAMGWYRQAPGKERELVATITRRGGSTYYADSVKGRFTISRDNAKNTVYLQMNSLKPEDTAVYYCNVTPDWNARRPFDYWGQGTKVTVSS measured="high polyreactivity"
biosequence=QVQLVESGGGLVQAGGSLRLSCAASGYIFLGYAMGWYRQAPGKERELVAAISSRGGSTYYADSVKGRFTISRDNAKNTVYLQMNSLKPEDTAVYYCAAYRFSDRAAYGYYDRHYYWGQGTQVTVSS measured="high polyreactivity"
